optical density by entry:
# assay-target: T1, human ACVR2A (human, UniProt P27037 20-135, limits assumed); also: test concentration or dose not given here
# T1 construct: also called activin receptor, type II A
# T1 sequence (P27037 20-135 limits assumed): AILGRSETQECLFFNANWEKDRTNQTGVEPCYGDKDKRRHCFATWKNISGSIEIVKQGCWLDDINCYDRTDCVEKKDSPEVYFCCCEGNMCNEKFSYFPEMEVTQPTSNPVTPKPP
# procedure-text: ELISA
The reply should be a number in OD, with the unit left off.

In the examples that follow, each entry is paired with its recorded optical density.
367_A08 (antibody, V domains shown, Group III) VH: EVQLLESGGGLVQPGGSLRLSCAASGFTFDSYGMNWVRQAPGKGLEWVAGINYNGGYTSYADSVKGRFTISRDNSKNTLYLQMNSLRAEDTAVYYCARGANWHDTHLDYWGQGTLVTVSS VL: DIQMTQSPSSLSASVGDRVTITCRASQSILTYLNWYQQKPGKAPKLLIYAVTSRASGVPSRFSGSGSGTDFTLTISSLQPEDFATYYCQQSYDSPLTFGGGTKVEIK    2.06
367_B09 (antibody, V domains shown, Group I) VH: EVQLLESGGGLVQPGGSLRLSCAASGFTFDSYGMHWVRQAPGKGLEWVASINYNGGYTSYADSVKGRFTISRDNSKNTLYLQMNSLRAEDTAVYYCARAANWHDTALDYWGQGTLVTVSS VL: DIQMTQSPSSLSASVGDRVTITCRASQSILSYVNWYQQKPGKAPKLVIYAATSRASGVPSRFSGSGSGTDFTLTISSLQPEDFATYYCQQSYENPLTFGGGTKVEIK    2.42

Kindly review the next binder as well.
Can you look up the measured optical density of 366_E08 (antibody, V domains shown, Group III) VH: EVQLLESGGGLVQPGGSLRLSCAASGFTFSDYSMNWVRQAPGKGLEWVSNINYNGGYTSYADSVKGRFTISRDNSKNTLYLQMNSLRAEDTAVYYCARGANWHDTHLDYWGQGTLVTVSS VL: DIQMTQSPSSLSASVGDRVTITCRASQSIVTYLNWYQQKPGKAPKLLIYAATSRHSGVPSRFSGSGSGTDFTLTISSLQPEDFATYYCQQSYSNPLTFGGGTKVEIK for me? 1.97
